The measurements presented in this section are drawn from PubChem BioAssay (NCI).

Test system: UO-31 renal
ASSAY_DETAILS: NCI-60 one-dose screen, 48 h (100 = growth as untreated, 0 = no growth, -100 = all killed)
SETUP_CONDITIONS: 10 µM unless noted
Compounds without any hit were thinned out: in the full panel of roughly 83,000, 20% have a hit. Activity calls are given as the source filed them. How the source made its calls: active means growth percent below 10; inactive means the rest.
MEASUREMENT_NAME: growth

Reference set, count: 6
MOLECULE	growth
COc1ccc(/C=N/NC(=O)Cn2c(Cc3cccc4ccccc34)nc3ccccc32)cc1	72.1% (inactive)
CN(C)C1CCC(NC2=CC(=O)C=CC2=O)CC1 (stereo not given)	92.3% (inactive)
c1ccn2nnnc2c1	94.5% (inactive)
Clc1ccc(/C=C/c2nc(N3CCOCC3)c3nc(Cl)c(Cl)cc3n2)cc1	76.7% (inactive)
Cc1oc2nc[nH]c(=O)c2c1C(=O)/C=C/c1ccc(Cl)cc1	37.9% (inactive)
CC(=O)Oc1cccc(OC(C)=O)c1OC(C)=O	76.6% (inactive)

Reported UO-31 renal growth for item O=C(Nc1ccc(F)c(Cl)c1)c1n[nH]c(=O)c2ccccc12 was 106% (inactive)

Param item: CC(=O)C1CCC(C)=CC1=O (stereo not given) ; param system: UO-31 renal; output growth: 80.3% (inactive)

I looked up Oc1ccc(Cl)cc1-c1cc(-c2ccc(Cl)cc2)n[nH]1 and its growth for UO-31 renal was 29% (inactive)
